All figures here come from the supplement of paper PMC10126150.

System: ATP;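 also: ATP exposure 15 min at 22 °C before imaging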
Experiment: switch fluorescence ratio, 500 uM ATP over buffer (Cy3 cluster intensity, sum of 5 cycles each) (fold (ratio)); higher = stronger signal-on switching upon ATP binding; sequences stand for … in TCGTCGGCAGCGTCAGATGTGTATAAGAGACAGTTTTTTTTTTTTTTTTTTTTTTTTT…TC
Settings: aptamer strand: ATP DNA aptamer (quencher-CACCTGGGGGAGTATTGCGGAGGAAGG + anchor), 100 nM annealed; ATP concentration: 500 uM
Property Measured: switch fluorescence ratio

1) TTATGTTTTA
0.997
2) TAATCTTTTG
0.986
3) GGATGCATAT
0.989
4) ACTTTTGTTT
1.02
5) TCGGAGTCTG
1.04
6) AATTTAGGTC
0.934
7) TTCAGCTTGG
0.99
8) TATTGTGGTT
1
9) AAATTGGTCC
1.02
10) CAGCGGGACG
1.02
11) TACGGCGGAA
1.02
12) TTATTGGTAA
1.01
13) TGTGTTCCCT
0.982
14) CATTTGGGCG
1.03
15) CGGGGATTGG
1
16) AGGGACTTGT
1
17) TTGGTGGGGA
0.987
18) TGGGCCGGGG
0.989
19) GCTTGGTCAT
0.971
20) GGACGTCTGA
1.02
21) TATATTTACC
1.04
22) GACATGAGGG
1
23) GGATTAAATT
1
24) GGGGTCTAAT
0.999
25) AATAAAATCG
1.04
26) TGTGAGGCGC
1
27) CTACATGTAA
1.03
28) TTCTAGGTCT
1.02
29) CAGCGTATTG
1.04
30) TCACGGGTTC
1.03
31) TTGATTTACT
0.993
32) TCCTGAGTTA
0.996
33) TTAGTAAAGA
1.02
34) ATGTTTGGAG
0.982
35) AAAGGGGTAT
1.03
36) CATTGTTAAT
1.01
37) TTTACGGAGC
1.37
38) GGGGGATCTT
1
39) ATAATTCGGC
0.984
40) TATGGGGAGC
0.998
41) TTGAGGATAG
0.987
42) GGGTCTTGTA
0.99
43) TAGACGTAGG
1.03
44) CGGTAGTTAC
1.25
45) ATACCGAGTG
0.991
46) TCTGTGAGTG
0.973
47) AACTTCAGCT
0.995
48) GATTGGGCTC
1.02
49) GGGGTGAGCC
0.978
50) TGATGGATGA
1.01
51) TTAGGCTTGT
0.996
52) GAGTTGGGAT
1.01
53) GGGAGAAAAG
0.984
54) ATTTTACGAA
1.03
55) GGATTAATG
1.1
56) ATATTTGCTT
1
57) ATCTCGGTTG
1.02
58) TTGATGGTGG
0.987
59) GATGGAGGGG
0.996
60) GGGGCTAAGA
0.993
61) TCGGTTGGTA
1
62) TTTACCGTCT
1.04
63) CCGTGCAGTT
2.12
64) GGGGGATGTC
1
65) AGGTTGTGAC
0.989
66) GGGGCTGGAG
1.03
67) TTATTGAATT
0.998
68) GCCCTTGGTT
1.02
69) AAAGGGTCGA
1.02
70) TTATGAATAT
0.982
71) GTGGAAGGCG
0.975
72) GGACGAAGGG
1.09
73) CGATTTTTGT
0.982
74) CGCTGATGGG
1.01
75) TTGGATAGAG
0.996
76) AGAATGGTGA
0.96
77) AGGGGGTTAT
1.01
78) GGTCGGGTTC
0.985
79) GATCAAAGGG
1.01
80) GCTCTAATTG
1.01
